Form field: Kd (one value per entry).
target-system: T1, His-tagged human HVEM (human, UniProt Q92956 39-202, limits assumed)
T1 construct: Analyte of the BLI assay, 200 nM in PBS; not shown: His tag
T1 sequence (looked up): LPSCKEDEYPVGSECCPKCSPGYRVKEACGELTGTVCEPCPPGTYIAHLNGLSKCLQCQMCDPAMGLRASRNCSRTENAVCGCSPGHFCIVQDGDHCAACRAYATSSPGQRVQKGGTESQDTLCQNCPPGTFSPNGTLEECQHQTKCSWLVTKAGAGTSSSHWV
test-protocol: BLI OctetRed96, mAb captured, 200 nM His-HVEM
Protocol: Binding of antibodies to HVEM may also be determined by bio-layer interferometry (BLI) on an OctetRed96@ system (Sartorius). (See http://www.fortebio.com/bli_technology.html for general description of a BLI assay.) For this experiment, murine anti-human HVEM antibodies were captured from culture supernatant using anti-mouse IgG Fc capture and immobilized to dip and read biosensors. […] Probes were dipped into PBS assay buffer and the dissociation rate (koff) was measured. […]
Supply the numeric figure in nM, leaving out any unit text.

[
  {
    "binder": "Ab_034 (H5S15-16A11B) (antibody, V domains shown, also called Ab_34) VH: DVQLVESGGGLVQPGGSRKLSCAASGFTFSSFGMHWVRQAPEKGLEWVAHISSGSSTIYYADTVKGRFTISRDNPKNTLFLQMTSLRSEDTAMYYCARGAYGNFAWFPYWGQGTLVTVSA VL: DVVMTQTPLSLSVSLGDQASISCRSSQSLVHSNGNTYLHWYLQKPGQSPKLLIYKVSNRFSGVPDRFSGSGSGTDFTLKISRVEAEDLGVYFCSQSTHVPTFGSGTKLEIK",
    "Kd, nM": 8.67
  }
]

Turning to the following binder.
Lookup result for Ab_008 (H5S14-11A10A) (antibody, V domains shown, also called Ab_8) VH: EVKLVESGGGLVKPGGSLRLSCAASGFTFSSFAMSWIRQTPEKGLEWVASITTGGSSYSPDSLKGRFTISRDNVRNIVYLQMSSLRSEDTAMYACARGGGGNYFWFAYWGQGTLVTVSA VL: DVVMTQTPLSLPVSLGDQASISCRSSQSLVHSNGNTYLHWYLQKPGQSPKLLIYKVSNRFSGVPDRFSGSGSGTDFTLKISRVEAEDLGVYFCSQSIHVPFTFGSGTKLEIK ; measured Kd: 4.8

Recorded values, source patent US20240317871A1.
